So I've got a bunch of compounds here, and I need their IC50 values.
Target: glucocorticoid receptor (GAL4 DBD-GR) (Homo sapiens (Human))
Sequence (P04150 524-758): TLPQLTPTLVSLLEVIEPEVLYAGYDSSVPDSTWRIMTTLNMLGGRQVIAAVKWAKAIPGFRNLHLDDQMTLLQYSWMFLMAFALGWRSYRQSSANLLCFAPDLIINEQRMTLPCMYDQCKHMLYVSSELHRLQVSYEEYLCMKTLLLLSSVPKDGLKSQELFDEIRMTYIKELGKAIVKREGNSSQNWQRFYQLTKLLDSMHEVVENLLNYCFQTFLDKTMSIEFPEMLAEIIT
Assay: GR cell-based assays (GRE agonist / GRE antagonist), CHO-Gal4/GR luciferase reporter
Conditions: read-out: IC50 or EC50

Item: Cc1cccc([C@@H]2[C@@H](NS(C)(=O)=O)[C@@H](C)C(=O)N2c2ccc3c(cnn3-c3ccc(F)cc3)c2)c1 (racemic) [Example 76] | System: glucocorticoid receptor (GAL4 DBD-GR) (Homo sapiens (Human)) | IC50: < 100 nM

Item: Cc1ncsc1C(=O)N[C@H]1[C@H](C)C(=O)N(c2ccc3c(cnn3-c3ccc(F)cc3)c2)[C@@H]1c1ccccc1 (racemic) [Example 60] | System: glucocorticoid receptor (GAL4 DBD-GR) (Homo sapiens (Human)) | IC50: 100 to 1000 nM

Item: CC[C@@H]1C(=O)N(c2ccc3c(cnn3-c3ccc(F)cc3)c2)[C@H](c2ccccc2)[C@H]1NC(=O)C1CC1 (racemic) [Example 126] | System: glucocorticoid receptor (GAL4 DBD-GR) (Homo sapiens (Human)) | IC50: < 100 nM

Item: Cc1cccc([C@@H]2[C@@H](NC(=O)C3CC3)[C@@H](C)C(=O)N2c2ccc3c(cnn3-c3ccc(F)cc3)c2)c1 (racemic) [Example 70] | System: glucocorticoid receptor (GAL4 DBD-GR) (Homo sapiens (Human)) | IC50: < 100 nM

Item: O=C(N[C@H]1[C@H](CC(F)F)C(=O)N(c2ccc3c(cnn3-c3ccc(F)cc3)c2)[C@@H]1c1ccccc1)C1CC1 [Example 131] | System: glucocorticoid receptor (GAL4 DBD-GR) (Homo sapiens (Human)) | IC50: 100 to 1000 nM

Item: Cc1cccc([C@@H]2[C@@H](NC(=O)c3cccnc3)[C@H](C)C(=O)N2c2ccc3c(cnn3-c3ccc(F)cc3)c2)c1 (racemic) [Example 68] | System: glucocorticoid receptor (GAL4 DBD-GR) (Homo sapiens (Human)) | IC50: 100 to 1000 nM

Item: Cc1ncoc1C(=O)N[C@H]1[C@H](c2ccccc2)N(c2ccc3c(cnn3-c3ccc(F)cc3)c2)C(=O)C1(C)C [Example 45b] | System: glucocorticoid receptor (GAL4 DBD-GR) (Homo sapiens (Human)) | IC50: 100 to 1000 nM

Item: C[C@@H]1C(=O)N(c2ccc3c(cnn3-c3ccc(F)cc3)c2)[C@H](c2ccccc2Cl)[C@H]1NC(=O)C1CC1 (racemic) [Example 112] | System: glucocorticoid receptor (GAL4 DBD-GR) (Homo sapiens (Human)) | IC50: 100 to 1000 nM

Item: Cc1cccc([C@@H]2[C@@H](NC(=O)c3ccn(C)n3)[C@@H](C)C(=O)N2c2ccc3c(cnn3-c3ccc(F)cc3)c2)c1 (racemic) [Example 72] | System: glucocorticoid receptor (GAL4 DBD-GR) (Homo sapiens (Human)) | IC50: < 100 nM

Item: COc1ccc([C@@H]2[C@@H](NC(=O)c3scnc3C)[C@H](C)C(=O)N2c2ccc3c(cnn3-c3ccc(F)cc3)c2)cc1 (racemic) [Example 82] | System: glucocorticoid receptor (GAL4 DBD-GR) (Homo sapiens (Human)) | IC50: 100 to 1000 nM

====

Molecular target: glucocorticoid receptor (GAL4 DBD-GR) (Homo sapiens (Human))
Assay: GR cell-based assays (GRE agonist / GRE antagonist), CHO-Gal4/GR luciferase reporter
Conditions: read-out: IC50 or EC50
metric.name: IC50

Reported IC50 of COc1ccc([C@@H]2[C@@H](NC(=O)c3cccnc3)[C@H](C)C(=O)N2c2ccc3c(cnn3-c3ccc(F)cc3)c2)cc1 (racemic) : 0.1 to 1 µM

Reported IC50 of Cc1cccc([C@@H]2[C@@H](NC(=O)c3scnc3C)[C@H](C)C(=O)N2c2ccc3c(cnn3-c3ccc(F)cc3)c2)c1 (racemic) : < 0.1 µM

Reported IC50 of C[C@@]1(c2ccccc2)[C@@H](NC(=O)C2CC2)CC(=O)N1c1ccc2c(cnn2-c2ccc(F)cc2)c1 (racemic) : 0.1 to 1 µM

Reported IC50 of Cc1cccc([C@@H]2[C@@H](NC(=O)c3ccn(C)n3)[C@H](C)C(=O)N2c2ccc3c(cnn3-c3ccc(F)cc3)c2)c1 (racemic) : < 0.1 µM
